# target_desc: T1, Human IL2Rγ extracellular domain expressed with a C-terminal myc-myc-hexahistidine tag (human)
# T1 construct: also called hIL-2Rg-MMH; hIL-2RG-MMH
# T1 chain: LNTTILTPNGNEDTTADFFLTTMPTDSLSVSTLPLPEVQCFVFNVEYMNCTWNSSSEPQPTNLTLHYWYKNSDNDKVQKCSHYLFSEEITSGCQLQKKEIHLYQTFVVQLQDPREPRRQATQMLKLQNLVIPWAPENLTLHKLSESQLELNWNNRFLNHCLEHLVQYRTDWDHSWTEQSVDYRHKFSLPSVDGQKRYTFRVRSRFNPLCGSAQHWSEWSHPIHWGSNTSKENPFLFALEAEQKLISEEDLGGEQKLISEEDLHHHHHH
# run_description: SPR, captured mAb, 25C, dissociation pH 6.0
Overview of reported t1/2 across a group of binders:

binder: H4H12871P (antibody, human IgG4 S228P, kappa, V domains shown, anti-IL2Rgamma mAb expressed with human IgG4 Fc; also called REGN9434) VH: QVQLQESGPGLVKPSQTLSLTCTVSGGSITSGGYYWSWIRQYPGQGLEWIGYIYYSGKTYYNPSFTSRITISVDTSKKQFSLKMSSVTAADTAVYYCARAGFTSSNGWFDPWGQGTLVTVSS VL: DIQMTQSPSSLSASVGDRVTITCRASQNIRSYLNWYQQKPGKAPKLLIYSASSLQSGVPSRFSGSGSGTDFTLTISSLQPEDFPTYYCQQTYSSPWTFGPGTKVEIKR
units_label: min
t1/2: 8
//
binder: H4H13541P (antibody, human IgG4 S228P, kappa, V domains shown, anti-IL2Rgamma mAb expressed with human IgG4 Fc) VH: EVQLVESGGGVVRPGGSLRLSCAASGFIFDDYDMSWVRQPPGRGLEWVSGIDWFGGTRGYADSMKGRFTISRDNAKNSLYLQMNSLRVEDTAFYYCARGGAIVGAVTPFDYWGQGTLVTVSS VL: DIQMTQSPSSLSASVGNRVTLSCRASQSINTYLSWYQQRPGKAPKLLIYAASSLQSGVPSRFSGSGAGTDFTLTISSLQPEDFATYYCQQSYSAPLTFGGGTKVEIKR
units_label: min
t1/2: 25
//
binder: H4H12890P (antibody, human IgG4 S228P, kappa, V domains shown, anti-IL2Rgamma mAb expressed with human IgG4 Fc) VH: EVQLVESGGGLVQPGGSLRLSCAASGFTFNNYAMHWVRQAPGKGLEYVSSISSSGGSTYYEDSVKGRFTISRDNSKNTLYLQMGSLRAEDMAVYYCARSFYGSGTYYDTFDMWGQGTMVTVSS VL: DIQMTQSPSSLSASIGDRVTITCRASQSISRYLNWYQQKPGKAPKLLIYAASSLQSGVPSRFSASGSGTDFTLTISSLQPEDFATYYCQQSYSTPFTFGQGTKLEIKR
units_label: min
t1/2: 18
//
binder: H4H12886P (antibody, human IgG4 S228P, kappa, V domains shown, anti-IL2Rgamma mAb expressed with human IgG4 Fc) VH: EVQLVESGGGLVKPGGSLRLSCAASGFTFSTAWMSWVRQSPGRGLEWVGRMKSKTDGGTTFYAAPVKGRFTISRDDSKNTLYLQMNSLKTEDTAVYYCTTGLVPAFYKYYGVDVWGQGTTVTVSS VL: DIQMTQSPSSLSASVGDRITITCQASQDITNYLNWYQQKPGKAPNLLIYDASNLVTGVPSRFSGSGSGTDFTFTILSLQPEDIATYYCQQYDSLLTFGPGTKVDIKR
units_label: min
t1/2: 18
//
binder: H4H12874P (antibody, human IgG4 S228P, kappa, V domains shown, anti-IL2Rgamma mAb expressed with human IgG4 Fc) VH: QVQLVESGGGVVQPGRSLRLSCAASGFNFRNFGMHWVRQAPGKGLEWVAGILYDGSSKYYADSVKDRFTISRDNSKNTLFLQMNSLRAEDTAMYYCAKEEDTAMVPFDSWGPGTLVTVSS VL: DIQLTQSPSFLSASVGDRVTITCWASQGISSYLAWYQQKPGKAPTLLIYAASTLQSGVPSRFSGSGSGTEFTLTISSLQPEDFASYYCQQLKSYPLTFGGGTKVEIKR
units_label: min
t1/2: 16
